B1: library; numbered along this chain (parent)
chain: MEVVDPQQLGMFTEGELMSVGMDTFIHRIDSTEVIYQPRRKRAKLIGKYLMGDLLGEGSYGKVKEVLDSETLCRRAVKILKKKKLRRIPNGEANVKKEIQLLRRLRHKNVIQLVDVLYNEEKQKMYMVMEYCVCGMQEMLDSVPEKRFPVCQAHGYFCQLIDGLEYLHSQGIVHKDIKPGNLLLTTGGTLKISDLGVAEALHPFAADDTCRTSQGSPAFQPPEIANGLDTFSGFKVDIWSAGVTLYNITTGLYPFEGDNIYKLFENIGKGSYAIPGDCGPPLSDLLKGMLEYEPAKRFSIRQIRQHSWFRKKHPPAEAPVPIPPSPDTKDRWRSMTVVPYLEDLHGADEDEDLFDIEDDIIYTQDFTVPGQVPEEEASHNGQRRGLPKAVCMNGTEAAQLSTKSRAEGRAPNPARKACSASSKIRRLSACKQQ

variants of: B1; test: STK11 functional score (HeLa growth suppression), rescaled enrichment; synonymous median = 1, nonsense median = 0 (normalised score); conditions: with HeLa; variant type: missense
Observable: STK11 functional score
Output: the number by itself.

Mutation Key: G381V
STK11 functional score: 0.684
--
Mutation Key: I88F
STK11 functional score: 0.793
--
Mutation Key: T230M
STK11 functional score: 0.971
--
Mutation Key: V95L
STK11 functional score: 0.889
--
Mutation Key: A206L
STK11 functional score: 1.03

Indicate the recorded STK11 functional score value for this variant: E407F
1.26

Indicate the recorded STK11 functional score value for this variant: V368S
1.1

Indicate the recorded STK11 functional score value for this variant: K191G
0.729

Indicate the recorded STK11 functional score value for this variant: H202M
1.19

Indicate the recorded STK11 functional score value for this variant: I267M
0.815
